B1: Poly(rC)-binding protein 1, residues 278 to 350; numbered along this chain, Q15365 (parent)
chain: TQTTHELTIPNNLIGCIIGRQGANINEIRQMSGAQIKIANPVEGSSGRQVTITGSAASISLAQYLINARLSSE

Variants of: B1
METHOD_SUMMARY: abundance fitness (aPCA) (normalised: wild type 0, dead -1); higher = more abundant; growth selection in yeast, the domain comes from the species named
EXPERIMENTAL_CONTEXT: Homo sapiens
Note to self: class = bucket of abundance fitness, per class 0: < -0.4; class 1: ≥ -0.4 and < -0.07; class 2: ≥ -0.07

[[record]]
mutations = "C16L"
class_assignment = "class 1"

[[record]]
mutations = "Q21R"
class_assignment = "class 2"

[[record]]
mutations = "H5E"
class_assignment = "class 1"

[[record]]
mutations = "S45N"
class_assignment = "class 2"

[[record]]
mutations = "S72A"
class_assignment = "class 2"

[[record]]
mutations = "R69V"
class_assignment = "class 0"

[[record]]
mutations = "N11I"
class_assignment = "class 1"

[[record]]
mutations = "G54E"
class_assignment = "class 0"

[[record]]
mutations = "A56W"
class_assignment = "class 1"

[[record]]
mutations = "L70N"
class_assignment = "class 0"

[[record]]
mutations = "Q49M"
class_assignment = "class 1"

[[record]]
mutations = "I17K"
class_assignment = "class 0"

[[record]]
mutations = "E6H"
class_assignment = "class 2"


Values from the Human Domainome abundance scans (Beltran et al. 2025)
